assayedTarget: AAV9 (adeno-associated virus serotype 9)
assayComment: SPR, AAV on CM5 chip
testReadout: Kd
The number alone won't do; follow it with the unit.

- binder: "A4-C8 (bispecific antibody) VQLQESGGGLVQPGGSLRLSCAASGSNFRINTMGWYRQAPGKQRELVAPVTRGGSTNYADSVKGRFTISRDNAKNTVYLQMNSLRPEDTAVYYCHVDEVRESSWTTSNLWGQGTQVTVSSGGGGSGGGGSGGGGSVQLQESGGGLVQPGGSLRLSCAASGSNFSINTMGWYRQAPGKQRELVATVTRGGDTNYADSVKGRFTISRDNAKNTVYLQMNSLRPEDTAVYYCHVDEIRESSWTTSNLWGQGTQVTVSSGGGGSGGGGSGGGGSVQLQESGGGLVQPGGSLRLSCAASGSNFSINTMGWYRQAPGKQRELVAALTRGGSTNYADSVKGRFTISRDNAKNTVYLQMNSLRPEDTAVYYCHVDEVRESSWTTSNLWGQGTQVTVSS"
  valueReported: "0.279 nM"

stdin: Please look up its Kd: A4-C2 (VHH) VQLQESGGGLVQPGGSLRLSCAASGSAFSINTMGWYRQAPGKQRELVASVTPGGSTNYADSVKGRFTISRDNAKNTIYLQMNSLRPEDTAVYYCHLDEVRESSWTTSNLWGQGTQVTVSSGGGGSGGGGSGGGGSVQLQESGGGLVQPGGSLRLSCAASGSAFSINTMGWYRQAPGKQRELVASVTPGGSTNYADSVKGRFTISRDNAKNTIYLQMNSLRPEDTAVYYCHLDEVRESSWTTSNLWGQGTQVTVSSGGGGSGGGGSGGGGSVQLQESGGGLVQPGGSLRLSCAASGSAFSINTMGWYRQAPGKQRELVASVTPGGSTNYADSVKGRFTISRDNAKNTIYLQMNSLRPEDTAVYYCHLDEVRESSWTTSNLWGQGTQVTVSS
stdout: 0.486 nM

stdin: # iterate: A4-C3 (bispecific antibody) VQLQESGGGLVQPGGSLRLSCAASGSIFSINLMGWYRQAPGKQRELVATITRGGNTNYAGSVKGRFTISRDNAKNTVYLQMNSLRPEDTAVYYCHVDEVRQSSWTTSNLWGQGTQVTVSSGGGGSGGGGSGGGGSVQLQESGGGLVQPGGSLRLSCAASGSIFSINLMGWYRQAPGKQRELVATITRGGNTNYAGSVKGRFTISRDNAKNTVYLQMNSLRPEDTAVYYCHVDEVRQSSWTTSNLWGQGTQVTVSSGGGGSGGGGSGGGGSVQLQESGGGLVQPGGSLRLSCAASGSNFRINTMGWYRQAPGKQRELVATVTRGGSTNYADSVKGRFTISRDNPKDTVYLQMNSLRPEDTAVYYCHVDEVRESSWTTSNLWGQGTQVTVSS
stdout: 0.491 nM
